Origin of values: paper PMC12207370

Answer each item with its documented Counts Seq II.
Target: biotinylated CD59 (Homo sapiens)
Construct: Recombinant soluble human CD59 with an additional C-terminal cysteine residue
Sequence (P13987 26-102 limits assumed): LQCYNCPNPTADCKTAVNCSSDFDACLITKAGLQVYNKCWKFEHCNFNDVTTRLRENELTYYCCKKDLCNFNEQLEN
Test: mRNA-display cyclic peptide screen against CD59-biotin, NGS abundance after 6th selection round
Settings: raw NGS counts of peptide sequence, sequencing sample Seq II, sheet R6 (6th selection round)
Answers are plain numbers.

Before answering, review these 5 worked examples.
INSERT INTO measurements (query_sequence, reported) VALUES
  ('CFSNRISGPAV', 92),
  ('QWNRWYGMDER', 42),
  ('CFKKRLDTVST', 7),
  ('FVRGDRYSVLG', 17),
  ('LYSHPRSLCSFS', 39);

Could you report Counts Seq II for every entry in the following list?
1. YVRGDAWTVLG
2. WIRGSRWWTQS
3. CAWGNRYIAYY
4. CFANRLYGSDSH

8
15
29
15

----------
Target: biotinylated CD59 (Homo sapiens, UniProt P13987)
Construct: Recombinant soluble human CD59 with an additional C-terminal cysteine residue
Sequence (P13987 26-102 limits assumed): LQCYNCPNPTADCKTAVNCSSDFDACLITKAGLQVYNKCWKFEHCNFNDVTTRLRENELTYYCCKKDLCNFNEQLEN
Assay: mRNA-display cyclic peptide screen against CD59-biotin, NGS abundance after 6th selection round
Details: raw NGS counts of peptide sequence, sequencing sample Seq I, sheet R6 (6th selection round)
Answer each item with its documented Counts Seq I.
Give bare numbers.

Could you report Counts Seq I for every entry in the following list?
1. FVTGNRDYTRG
2. QPFWGCRTVAYS

220
144

----------
Answer each item with its documented Counts Seq II.
Target: biotinylated CD59 (Homo sapiens, UniProt P13987)
Construct: Recombinant soluble human CD59 with an additional C-terminal cysteine residue
Sequence (P13987 26-102 limits assumed): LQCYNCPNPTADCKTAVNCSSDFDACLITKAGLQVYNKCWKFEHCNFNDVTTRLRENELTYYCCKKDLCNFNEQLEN
Experiment: mRNA-display cyclic peptide screen against CD59-biotin, NGS abundance after 6th selection round
Settings: raw NGS counts of peptide sequence, sequencing sample Seq II, sheet R6 (6th selection round)
Answers are plain numbers.

Could you report Counts Seq II for every entry in the following list?
1. CFANRLYGSDSR
2. CFSRRTSVPNTT
3. TILGNKHYVRG
4. CFASRTLLNTSV
5. SSWAQLPCRS
6. CFQRRTLGPDAI
7. CYGGRTFIYARS

[17, 82, 69, 45, 22, 38, 7]

Could you report Counts Seq II for every entry in the following list?
1. VASGGRYWSRA
2. LYGNRDYSFYRP
3. HVFGDRSFTRG
4. GYLNECHTLYTL

1. 60
2. 73
3. 11
4. 12

Could you report Counts Seq II for every entry in the following list?
1. WILGSRWWTQR
2. CYGGRTFIYVWS
3. CFVNRLSDSLSL
4. CFAARLSNGDS
5. HCWARGSRNYT
6. GRLNECHVIWP
7. IALGDRTFSFG

1. 9
2. 10
3. 30
4. 156
5. 15
6. 130
7. 144

What value of measured Counts Seq II is listed for CFSYRIRSAYDL ?
13

----------
Molecular target: biotinylated CD59 (Homo sapiens, UniProt P13987)
Construct: Recombinant soluble human CD59 with an additional C-terminal cysteine residue
Sequence (P13987 26-102 limits assumed): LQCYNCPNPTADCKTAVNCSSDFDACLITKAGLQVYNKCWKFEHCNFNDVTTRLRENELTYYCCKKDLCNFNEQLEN
Experiment: mRNA-display cyclic peptide screen against CD59-biotin, NGS abundance after 6th selection round
Conditions: raw NGS counts of peptide sequence, sequencing sample Seq I, sheet R6 (6th selection round)
measured.parameter: Counts Seq I

Before answering, review these 10 worked examples.
INSERT INTO measurements (query_sequence, measured_parameter, reported) VALUES
  ('CFGRRADPDGI', 'Counts Seq I', 174),
  ('HCWVRGGRNYT', 'Counts Seq I', 104),
  ('SWTWGNRSTVRG', 'Counts Seq I', 49),
  ('WILGSRWWTRS', 'Counts Seq I', 424),
  ('CFALRLSQTSV', 'Counts Seq I', 78),
  ('YARGDASHTIW', 'Counts Seq I', 186),
  ('CFASRLTIDAV', 'Counts Seq I', 140),
  ('CFTNRLDNSST', 'Counts Seq I', 314),
  ('YLFGDRFSVRG', 'Counts Seq I', 412),
  ('YAQGDKLTARG', 'Counts Seq I', 124);

Could you report Counts Seq I for every entry in the following list?
1. HCWVRGSRNYA
2. IARGDRTFSFG
3. SSWAQLPCRR

128
57
289

Could you report Counts Seq I for every entry in the following list?
1. ASWLPSPCKFN
2. FVMGNRDHTRG
3. FQYFGTGIAFG
4. VARGNSNTVWG
5. HVIGNRSFTRG

1. 128
2. 76
3. 1316
4. 85
5. 87

Could you report Counts Seq I for every entry in the following list?
1. SSYRELAHLPC
2. CFANRLYGSDSH
3. WTRGSKDYTRG

135
135
737

Could you report Counts Seq I for every entry in the following list?
1. CFVRRLNDLTTT
2. CIDVYGRMWA
3. FITGNRDHTRG
4. YAWGNRNNAYY
5. CYGGRTFIYACS
6. FVTGNRGHTRG

[528, 375, 78, 263, 83, 105]

----------
Biological target: biotinylated CD59 (Homo sapiens)
Construct: Recombinant soluble human CD59 with an additional C-terminal cysteine residue
Sequence (P13987 26-102 limits assumed): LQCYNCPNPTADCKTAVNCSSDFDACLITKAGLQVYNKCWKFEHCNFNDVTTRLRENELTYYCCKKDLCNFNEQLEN
Test: mRNA-display cyclic peptide screen against CD59-biotin, NGS abundance after 6th selection round
Conditions: raw NGS counts of peptide sequence, sequencing sample Seq I, sheet R6 (6th selection round)
measured.parameter: Counts Seq I
Give bare numbers.

Before answering, review these 3 worked examples.
INSERT INTO assay_data (query_sequence, reported) VALUES
  ('ARGGPTWSRG', 147),
  ('LCSVRGSNDWI', 320),
  ('YGASPTSLCSGI', 727);

Consider the additional sequence presented here.
Counts Seq I of CYGGRTFIYAWP on biotinylated CD59 (Homo sapiens)?
263
